Data provenance is ChEMBL document CHEMBL4831483.

# Test system: HEK-293T
# Method Notes: Cytotoxicity against human HEK293T cells assessed as reduction in cell viability incubated for 24 hrs by CCK8 assay
# Format: cell-based
# Experimental Setup: hek-293t, 24 h
Reported Endpoint: CC50

Smiles Data: O=C(CSc1c[nH]c2cc(Br)ccc12)NCc1ccc(Cl)c(Cl)c1
CC50: 67.6 µM
--
Smiles Data: Cn1cc(SCC(=O)NCc2ccc(C(F)(F)F)cc2)c2ccccc21
CC50: > 100 µM
--
Smiles Data: CN(C)CCOc1ccc(CNC(=O)CSc2c[nH]c3ccccc23)cc1
CC50: > 100 µM
--
Smiles Data: COc1ccccc1CNC(=O)CSc1cn(C)c2ccccc12
CC50: > 100 µM
--
Smiles Data: COc1ccccc1CNC(=O)CSc1c[nH]c2c(Br)cccc12
CC50: 72.4 µM

Form field, CC50 with HEK-293T, item `O=C(CSc1c[nH]c2cccc(Br)c12)NCc1ccc(Cl)c(Cl)c1` : > 100 µM

Form field, CC50 with HEK-293T, item `COc1ccccc1CN(C)C(=O)CSc1c[nH]c2ccccc12` : > 100 µM

Form field, CC50 with HEK-293T, item `COc1ccccc1CNC(=O)CSc1c[nH]c2cccc(Br)c12` : > 100 µM

Form field, CC50 with HEK-293T, item `O=C(CSc1c[nH]c2cccc(Br)c12)N(Cc1ccccc1)Cc1ccccc1` : 25.7 µM

Form field, CC50 with HEK-293T, item `O=C(CSc1c[nH]c2ccccc12)N(Cc1ccccc1)Cc1ccccc1` : > 100 µM

Form field, CC50 with HEK-293T, item `COc1ccccc1CNC(=O)CSc1c[nH]c2cc(Br)ccc12` : > 100 µM

* * *

# Method Notes: Cytotoxicity against human HEK293T cells assessed as reduction in cell viability incubated for 24 hrs by CCK8 assay
# Format: cell-based, HEK-293T
# Experimental Setup: HEK293T cells
Reported Endpoint: CC50 at 24 h

Looking up `CCC(CC)COC(=O)[C@H](C)N[P@](=O)(OC[C@H]1O[C@@](C#N)(c2ccc3c(N)ncnn23)[C@H](O)[C@@H]1O)Oc1ccccc1` , I found its CC50 at 24 h recorded as > 100 µM

* * *

# System Name: Replicase polyprotein 1ab (Severe acute respiratory syndrome coronavirus 2)
# Method Notes: Inhibition of SARS-CoV-2 RdRp transfected in human HEK293T cells cotransfected nsp12
# Format: cell-based
Reported Endpoint: pIC50
On this scale, pIC50 is minus log10 of a concentration expressed in M (mol/L).

Some solved entries appear below for comparison.
Smiles Data: CN(Cc1ccccc1)C(=O)CSc1c[nH]c2ccccc12
System Name: Replicase polyprotein 1ab (Severe acute respiratory syndrome coronavirus 2)
pIC50: 5.34

Smiles Data: O=C(CSc1c[nH]c2cccc(Br)c12)N(Cc1ccccc1)Cc1ccccc1
System Name: Replicase polyprotein 1ab (Severe acute respiratory syndrome coronavirus 2)
pIC50: 5.42

Smiles Data: O=C(CSc1c[nH]c2ccccc12)N(Cc1ccccc1)Cc1ccccc1
System Name: Replicase polyprotein 1ab (Severe acute respiratory syndrome coronavirus 2)
pIC50: 5.47

Smiles Data: CCOc1ccccc1CN(OC)C(=O)CSc1c[nH]c2cccc(Br)c12
System Name: Replicase polyprotein 1ab (Severe acute respiratory syndrome coronavirus 2)
pIC50: 5.95

Then there is this molecule:
Form field, pIC50 with Replicase polyprotein 1ab (Severe acute respiratory syndrome coronavirus 2), item `COc1ccccc1CNC(=O)CSc1c[nH]c2c(-c3ccccc3)cccc12` : 5.78

* * *

Reported values of IC50 for individual entries
# System Name: Replicase polyprotein 1ab (Severe acute respiratory syndrome coronavirus 2)
# Method Notes: Inhibition of SARS-CoV-2 RdRp transfected in human HEK293T cells cotransfected with Cov-Gluc by Gaussia luciferase reporter gene method
# Format: cell-based
# Experimental Setup: read-out: IC50
Report the value in µM with no unit label.

Some solved entries appear below for comparison.
Smiles Data: CN(C)CCOc1ccc(CNC(=O)CSc2cn(C)c3ccccc23)cc1
Reported Endpoint: IC50
Number: 8.91
//
Smiles Data: COc1ccccc1CN(C)C(=O)CSc1c[nH]c2ccccc12
Reported Endpoint: IC50
Number: 7.64
//
Smiles Data: Cn1cc(SCC(=O)N(Cc2ccccc2)Cc2ccccc2)c2ccccc21
Reported Endpoint: IC50
Number: 12.3

Then there is this compound:
Form field, IC50 with Replicase polyprotein 1ab (Severe acute respiratory syndrome coronavirus 2), item `O=C(CSc1c[nH]c2ccccc12)NCc1ccc(C(F)(F)F)cc1` : 7.94

* * *

Reported values of CC50 for individual entries
# Test system: HEK-293T
# Method Notes: Cytotoxicity against human HEK293T cells assessed as reduction in cell viability incubated for 24 hrs by CCK8 assay
# Assay type: cell-based
# Experimental Setup: hek-293t, 24 h
Report the value in µM with no unit label.

Smiles Data: Cn1cc(SCC(=O)N(Cc2ccccc2)Cc2ccccc2)c2ccccc21
Unit Of Measurement: µM
CC50: 91.2

Then there is this compound:
Looking up `Cn1cc(SCC(=O)NCc2ccccc2)c2ccccc21` , I found its CC50 recorded as 95.5

* * *

# System Name: Replicase polyprotein 1ab (Severe acute respiratory syndrome coronavirus 2)
# Method Notes: Inhibition of SARS-CoV-2 RdRp transfected in human HEK293T cells cotransfected nsp12 along with nsp14 and nsp10
# Format: cell-based
Field 'label' (enum: criterion met / criterion not met). Set to criterion met when IC50 is strictly under 2 µM; else criterion not met.

Example entries and their recorded answers appear below.
Smiles Data: O=C(CSc1c[nH]c2ccccc12)N(Cc1ccccc1)Cc1ccccc1
Label Class: criterion not met
--
Smiles Data: CN(Cc1ccccc1)C(=O)CSc1c[nH]c2ccccc12
Label Class: criterion not met
--
Smiles Data: O=C(CSc1c[nH]c2cccc(Br)c12)N(Cc1ccccc1)Cc1ccccc1
Label Class: criterion not met
--
Smiles Data: CCOc1ccccc1CN(OC)C(=O)CSc1c[nH]c2cccc(Br)c12
Label Class: criterion met

Then this compound:
API: query returns whether the compound falls strictly under 2 µM in IC50. Query: `COc1ccccc1CNC(=O)CSc1c[nH]c2c(-c3ccccc3)cccc12`
criterion not met

* * *

# Test system: HEK-293T
# Method Notes: Cytotoxicity against human HEK293T cells assessed as reduction in cell viability incubated for 24 hrs by CCK8 assay
# Format: cell-based
# Experimental Setup: hek-293t, 24 h
Reported Endpoint: CC50

Smiles Data: CN(Cc1ccccc1)C(=O)CSc1c[nH]c2c(Br)cccc12
System Name: HEK-293T
Result: 52.5 µM

Then there is this compound:
Looking up `CCOc1ccccc1CN(OC)C(=O)CSc1c[nH]c2cccc(Br)c12` , I found its CC50 recorded as > 100 µM

* * *

# System Name: UniProt P0DTD1
# Method Notes: Inhibition of SARS-CoV-2 RdRp transfected in human HEK293T cells cotransfected with Cov-Gluc by Gaussia luciferase reporter gene method
# Assay type: cell-based
# Experimental Setup: read-out: IC50
Field 'label' (enum: 1 / 0). Set to 1 when IC50 is strictly under 8 µM; else 0.

Example entries and their recorded answers appear below.
Smiles Data: O=C(CSc1c[nH]c2ccccc12)NCc1ccccc1
Label Class: 1
--
Smiles Data: CN(Cc1ccccc1)C(=O)CSc1c[nH]c2cccc(Br)c12
Label Class: 1
--
Smiles Data: COc1ccccc1CNC(=O)CSc1c[nH]c2cccc(Br)c12
Label Class: 0
--
Smiles Data: COc1ccccc1CNC(=O)CSc1cn(C)c2ccccc12
Label Class: 0
--
Smiles Data: O=C(CSc1c[nH]c2cccc(Br)c12)NCc1ccc(Cl)c(Cl)c1
Label Class: 1

API: query returns whether the molecule falls strictly under 8 µM in IC50. Query: `O=C(CSc1c[nH]c2cc(Br)ccc12)NCc1ccc(Cl)c(Cl)c1`
0

API: query returns whether the molecule falls strictly under 8 µM in IC50. Query: `O=C(CSc1c[nH]c2c(Br)cccc12)N(Cc1ccccc1)Cc1ccccc1`
1

* * *

Reported values of CC50 for individual entries
# Tested on: HEK-293T
# Method Notes: Cytotoxicity against human HEK293T cells assessed as reduction in cell viability incubated for 24 hrs by CCK8 assay
# Assay type: cell-based
# Experimental Setup: hek-293t, 24 h

Some solved entries appear below for comparison.
Smiles Data: O=C(CSc1c[nH]c2ccccc12)NCc1ccccc1
System Name: HEK-293T
Result: > 100 µM
//
Smiles Data: COc1ccccc1CNC(=O)CSc1c[nH]c2c(-c3ccccc3)cccc12
System Name: HEK-293T
Result: 95.5 µM
//
Smiles Data: CN(Cc1ccccc1)C(=O)CSc1c[nH]c2ccccc12
System Name: HEK-293T
Result: > 100 µM
//
Smiles Data: O=C(CSc1c[nH]c2ccc(Br)cc12)NCc1ccc(Cl)c(Cl)c1
System Name: HEK-293T
Result: > 100 µM

Looking up `COc1ccccc1CNC(=O)CSc1c[nH]c2ccc(Br)cc12` , I found its CC50 recorded as > 100 µM

Looking up `CN(Cc1ccccc1)C(=O)CSc1c[nH]c2cccc(Br)c12` , I found its CC50 recorded as 25.1 µM
